The values you see were collected from the supplement of paper PMC9233669.

# System: biotinyl-Ile-oxazolone
# method-description: self-aminoacylation, catalytic enhancement (BIO) (fold over background); higher = more active; k-Seq, kA / k0A0; sequences stand for … in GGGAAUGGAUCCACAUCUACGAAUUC…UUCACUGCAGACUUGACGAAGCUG
This sample holds only a part of the variants without activity.
Would you please tag the item y when its self-aminoacylation is 3 or above, and n when it is below?

AUUCACCUAGAUCAUCGGUUG [Fam2.2 aminoacylation ribozyme variant] : n
CUACUUCAAAGAACCGGUCUG [Fam1A.1 aminoacylation ribozyme variant] : n
AUUCACGUAGGUCAUCCGGUG [Fam2.2 aminoacylation ribozyme variant] : y

Item AUUCACCUAAGGCAUCGGGUG [Fam2.2 aminoacylation ribozyme variant] with self-aminoacylation of 3 or above?
n

Answer whether self-aminoacylation of AUUACCCUGGUCAUCGUAUGA [Fam2.1 aminoacylation ribozyme variant] is greater than or equal to 3.
n

# check: self-aminoacylation of AUUCACCCAGGUCAUCGGAUG [Fam2.2 aminoacylation ribozyme variant] is greater than or equal to 3
n

hey, is self-aminoacylation for this one >= 3? AUUACCCUGGUCAUAGAGUGA [Fam2.1 aminoacylation ribozyme variant]
y

Does the reported self-aminoacylation for GUUCACCUAGGUCUUCGGGUG [Fam2.2 aminoacylation ribozyme variant] fall at or above the 3 mark?
y

Could you please find out whether AUUCACCUAGGCCAUCCGGUG [Fam2.2 aminoacylation ribozyme variant] has self-aminoacylation that meets 3 or exceeds it?
y

self-aminoacylation >= 3 for AAGUUUGCUAAUAGUAGCUAG [Fam3.1 aminoacylation ribozyme variant] ?
n

Test whether the sequence AUUCACCUAGGUCAUCUGUUG [Fam2.2 aminoacylation ribozyme variant] records self-aminoacylation of 3 or higher.
n

Assess whether reported self-aminoacylation for AUGACCCUGGUCAUCGAGAGA [Fam2.1 aminoacylation ribozyme variant] sits at 3 or higher.
n

Determine whether this sequence has self-aminoacylation no lower than 3: CCACACUUCAGGCAAUCGUUC [Fam1B.1 aminoacylation ribozyme variant]
n

Answer whether self-aminoacylation of ACGACCCUGGUCAUCGAGUGA [Fam2.1 aminoacylation ribozyme variant] is greater than or equal to 3.
y

Determine whether this sequence has self-aminoacylation no lower than 3: CUACUUCAAGCACUCGGUCUG [Fam1A.1 aminoacylation ribozyme variant]
n

Answer whether self-aminoacylation of AAGUUUGCUAGUAGUCGCAUG [Fam3.1 aminoacylation ribozyme variant] is greater than or equal to 3.
n

self-aminoacylation >= 3 for GUUCAACUAGGUCAUCGGGUG [Fam2.2 aminoacylation ribozyme variant] ?
y

---

# Test system: biotinyl-Ile-oxazolone
# method-description: self-aminoacylation, catalytic enhancement (BIO) (fold over background); higher = more active; k-Seq, kA / k0A0; sequences stand for … in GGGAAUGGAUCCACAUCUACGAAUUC…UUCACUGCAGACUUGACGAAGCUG
This sample holds only a part of the variants without activity.
assay-readout: self-aminoacylation
One number for each entry.

These solved cases illustrate the format of a correct answer.
CAACUUCAAACAAUCGGACUG [Fam1A.1 aminoacylation ribozyme variant] : 1.26
AUCCACCUAGGUCAUGGGGUG [Fam2.2 aminoacylation ribozyme variant] : 3.54
AUACUUCAAACCAUCGGUCUG [Fam1A.1 aminoacylation ribozyme variant] : 1.1
GUACUUCAAACAAUCGGCCUG [Fam1A.1 aminoacylation ribozyme variant] : 4.51
CCACACUUCAAGCGAUCGGUA [Fam1B.1 aminoacylation ribozyme variant] : 1.22

Report self-aminoacylation for every entry below.
1. AAGUAUGCUAAUAGGCGCAAG [Fam3.1 aminoacylation ribozyme variant]
2. GUACUUCACACAAUCGGUCUG [Fam1A.1 aminoacylation ribozyme variant]
3. UUUACCCUGGUCAUCCAGUGA [Fam2.1 aminoacylation ribozyme variant]

[0.992, 1.34, 3.12]

---

# System: biotinyl-Met-oxazolone
# method-description: self-aminoacylation, catalytic enhancement (BMO) (fold over background); higher = more active; k-Seq, kA / k0A0; sequences stand for … in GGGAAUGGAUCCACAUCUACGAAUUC…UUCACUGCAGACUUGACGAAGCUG
Variants at the floor of the assay were thinned out.
assay-readout: self-aminoacylation
Answers are plain numbers.

CUACUUCAAACGAUCGGUCUA [Fam1A.1 aminoacylation ribozyme variant] : 0.744
CCACACUUCAAGCGACCGGUC [Fam1B.1 aminoacylation ribozyme variant] : 1.11
ACUCACCUAGGUCAGCGGGUG [Fam2.2 aminoacylation ribozyme variant] : 4.16
AUUCGCAUAGGUCAUCGGGUG [Fam2.2 aminoacylation ribozyme variant] : 9.49

Look up self-aminoacylation: AUGCACCUAAGUCAUCGGGUG [Fam2.2 aminoacylation ribozyme variant]
8.76

---

Would you mind telling me the reported self-aminoacylation of each entry?
# Test system: biotinyl-Trp-oxazolone
# method-description: self-aminoacylation, catalytic enhancement (BWO) (fold over background); higher = more active; k-Seq, kA / k0A0; sequences stand for … in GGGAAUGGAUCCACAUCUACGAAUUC…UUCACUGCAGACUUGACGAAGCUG
Fewer inactive variants are shown than the library holds.
Give bare numbers.

AUUGACCUAGGUCAUCGGGUU [Fam2.2 aminoacylation ribozyme variant] : 12.2
CCAGACUUUAAGCAAUCGGUC [Fam1B.1 aminoacylation ribozyme variant] : 0.821
CCACACUUCAAGAAAUCGGGC [Fam1B.1 aminoacylation ribozyme variant] : 2.16
AAUACCCUGGUCAUCGGGUGA [Fam2.1 aminoacylation ribozyme variant] : 15.9
AUUCACCUAGGUCGUCGGGUG [Fam2.2 aminoacylation ribozyme variant] : 1.66

Would you be so kind as to report self-aminoacylation for each listed record?
1. AUUCACCUAGGUUAUCAGGUG [Fam2.2 aminoacylation ribozyme variant]
2. AUACACCUAGGUCAUGGGGUG [Fam2.2 aminoacylation ribozyme variant]
3. AAGUUUGCUUAUAGACGCAAG [Fam3.1 aminoacylation ribozyme variant]
4. AAGUUUGCUAAUAGUCACAAG [Fam3.1 aminoacylation ribozyme variant]

2.12
3.4
0.629
4.08

---

# Tested on: biotinyl-Ile-oxazolone
# method-description: self-aminoacylation, catalytic enhancement (BIO) (fold over background); higher = more active; k-Seq, kA / k0A0; sequences stand for … in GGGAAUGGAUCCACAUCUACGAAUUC…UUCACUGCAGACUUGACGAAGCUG
This sample holds only a part of the variants without activity.
Give self-aminoacylation for every item shown.
Numbers only.

Solved entries (count: 3):
CUACUUCAAACAAUCGUUUUG [Fam1A.1 aminoacylation ribozyme variant] : 0.758
CGACUUCAAACAAUCGGGCUG [Fam1A.1 aminoacylation ribozyme variant] : 2.45
GUUACCAUGGUCAUCGAGUGA [Fam2.1 aminoacylation ribozyme variant] : 5.01

// below: self-aminoacylation requested for another sequence
Name the reported self-aminoacylation value associated with the sequence AUUCAGCUAGGUUAUCGGGUG [Fam2.2 aminoacylation ribozyme variant]
5.01

---

# Test system: biotinyl-Ile-oxazolone
# method-description: self-aminoacylation, catalytic enhancement (BIO) (fold over background); higher = more active; k-Seq, kA / k0A0; sequences stand for … in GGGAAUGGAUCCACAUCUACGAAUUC…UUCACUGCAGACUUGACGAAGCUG
Variants at the floor of the assay were thinned out.
assay-readout: self-aminoacylation

AUUACCCUUGUCAACGAGUGA [Fam2.1 aminoacylation ribozyme variant] : 3.27
ACUCACCUAGGUCAGCGGGUG [Fam2.2 aminoacylation ribozyme variant] : 3.56
AUUCACCUAGGUCAUCCGGCG [Fam2.2 aminoacylation ribozyme variant] : 3.31

Give one value of self-aminoacylation per listed sequence.
1. UUUCACCUAGGUCAUCGGGAG [Fam2.2 aminoacylation ribozyme variant]
2. AUUCACCUAGGUCAUGGGGUA [Fam2.2 aminoacylation ribozyme variant]
3. AUUACCCUGAUCAACGAGUGA [Fam2.1 aminoacylation ribozyme variant]
4. AAGUUUGAUAAUAGUCUCAAG [Fam3.1 aminoacylation ribozyme variant]
5. AUUCACCUAGGUCAUUGGGUC [Fam2.2 aminoacylation ribozyme variant]

[1.68, 1.96, 6.3, 0.737, 0.922]

self-aminoacylation lookup needed for AUUCCCCUGGUUAUCGAGUGA [Fam2.1 aminoacylation ribozyme variant] , thanks.
5.07

---

# Test system: biotinyl-Trp-oxazolone
# method-description: self-aminoacylation, catalytic enhancement (BWO) (fold over background); higher = more active; k-Seq, kA / k0A0; sequences stand for … in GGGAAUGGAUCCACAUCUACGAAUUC…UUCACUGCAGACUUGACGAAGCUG
Variants at the floor of the assay were thinned out.
Label fulfilled for high-side self-aminoacylation (at or above 5) and not fulfilled for low-side self-aminoacylation (below it).

Please review the entries below; each comes with its answer.
ACUACCCUGGUCAUCUAGUGA [Fam2.1 aminoacylation ribozyme variant] : fulfilled
AUUCGCCCAGGUCAUCGGGUG [Fam2.2 aminoacylation ribozyme variant] : fulfilled
CCACACUUCAAGCAGGCGGUC [Fam1B.1 aminoacylation ribozyme variant] : not fulfilled
AUUACCCCCGUCAUCGAGUGA [Fam2.1 aminoacylation ribozyme variant] : not fulfilled
AUAACCCUGGUCAUCUAGUGA [Fam2.1 aminoacylation ribozyme variant] : fulfilled

Does AAGUUUGCUGAGAGUCGCAAG [Fam3.1 aminoacylation ribozyme variant] have a reported self-aminoacylation of at least 5?
not fulfilled

Determine whether this sequence has self-aminoacylation no lower than 5: CCACACUUCAAGCACUCGGUG [Fam1B.1 aminoacylation ribozyme variant]
not fulfilled

Check this sequence for self-aminoacylation at or above 5: CGAGUUCAAACAAUCGGUCUG [Fam1A.1 aminoacylation ribozyme variant]
not fulfilled

Has CUACUUCAAACAACCGGUCGG [Fam1A.1 aminoacylation ribozyme variant] a recorded self-aminoacylation greater than or equal to 5?
not fulfilled

Can AUUCAUCUUGGUCAUCGGGUG [Fam2.2 aminoacylation ribozyme variant] be said to have self-aminoacylation at or above 5?
fulfilled

Exam item: decide whether the reported self-aminoacylation for GUUUACCUAGGUCAUCGGGUG [Fam2.2 aminoacylation ribozyme variant] is at least 5.
fulfilled

Threshold query (self-aminoacylation >= 5) on CCUCACUUCAAGCAGUCGGUC [Fam1B.1 aminoacylation ribozyme variant]
not fulfilled

Is reported self-aminoacylation greater than or equal to 5 here: CUUUUUCAAACAAUCGGUCUG [Fam1A.1 aminoacylation ribozyme variant]
not fulfilled

Does AAGUUUGCUAAUAUCCGCAAG [Fam3.1 aminoacylation ribozyme variant] have a reported self-aminoacylation of at least 5?
not fulfilled

Form field: self-aminoacylation at least 5? Entry: AUCCACCUUGGUCAUCGGGUG [Fam2.2 aminoacylation ribozyme variant]
fulfilled

Reported self-aminoacylation reaches at least 5 for CCACUACAAACAAUCGGUCUG [Fam1A.1 aminoacylation ribozyme variant] ?
not fulfilled

Textbook exercise: given the entry CCACAUUUUAAGCAAUCGGUC [Fam1B.1 aminoacylation ribozyme variant] , state whether its self-aminoacylation is greater than or equal to 5.
not fulfilled
